Test system: SF-268 CNS
MEASUREMENT_DESCRIPTION: NCI-60 one-dose screen, 48 h
RECORDED_CONDITIONS: 10 µM unless noted
About 83,000 compounds went through this panel and 20% of them were active in at least one assay; those are over-represented in the sample as a whole. Calls of active or inactive are those of the source. How the source made its calls: active means growth percent below 10; inactive means the rest.
Hi there, use one of these labels in your reply, thanks! active, inactive

Query :: Give the logged outcome of this assay for the following compound: O=C(NO)c1ccc(CNc2cccc3nc(C4CC4)n(-c4ccccc4)c(=O)c23)cc1
Result :: active

Query :: Identify the outcome logged in this assay for the compound shown: CN1C(=O)N(C)C2C1NN=c1s/c(=C\c3ccc(Br)cc3)c(=O)n12 (stereo unspecified)
Result :: inactive

Query :: Which result was noted for this compound in the test: Cc1nn(-c2ccccc2)c2nc3c(nc12)C1=NCCN1C(c1ccc(Cl)cc1)N3 (stereo unspecified)
Result :: inactive

Query :: Which outcome was entered for the compound COc1cccc(/C=N\Nc2ccc([N+](=O)[O-])cn2)c1O in this test?
Result :: inactive

Query :: Which result was noted for this compound in the test: CCCCSc1ncnc2c1ncn2C1CCCCO1 (stereo unspecified)
Result :: inactive

Query :: Recorded test call requested for COc1ccc(C(=O)OC2C(OC3C(O)COC(O[C@H]4C[C@H]5[C@@H]6CC=C7C[C@@H](O)CC[C@]7(C)[C@H]6CC[C@]5(C)[C@H]4[C@H](C)C(=O)CCC(C)C)C3OC(N)=O)OCC(O)C2O)cc1 (stereo partly specified)
Result :: active

Query :: Name the outcome recorded for O=C(/C=C/c1cn(-c2ccccc2)nc1-c1ccccc1)OCc1cn(-c2cccc([N+](=O)[O-])c2)nn1 in the assay.
Result :: inactive

Query :: I would be grateful if you could indicate the recorded call for CC(C)=CC[C@@H]1CC2(CC=C(C)C)C(=O)C(OC3(C(=O)c4ccccc4)C(=O)C4(CC=C(C)C)C[C@@H](CC=C(C)C)C(C)(C)C(CC=C(C)C)(C4=O)C3=O)(C(=O)c3ccccc3)C(=O)C(CC=C(C)C)(C2=O)C1(C)C (stereo partly specified) .
Result :: inactive

Query :: Hi, do you know how COc1ccc(/C(C)=N/NC(=O)c2ccc(S(C)(=O)=O)cc2)cc1OC came out in this test?
Result :: inactive

Query :: Called result for O=C1Nc2ccccc2/C1=C\c1nc(C2CCN(S(=O)(=O)c3ccc(F)cc3)CC2)n2ccccc12
Result :: inactive

Query :: Given COc1ccc(C(=O)OC2C(OC3C(O)COC(O[C@H]4C[C@H]5[C@@H]6CC=C7C[C@@H](O)CC[C@]7(C)[C@H]6CC[C@]5(C)[C@H]4[C@H](C)C(=O)CCC(C)C)C3OC(C)=O)OCC(O)C2O)cc1 (stereo partly specified) , state the outcome it received in this test.
Result :: active

Query :: Fill in: this test's call for COc1ncnc2[nH]cc(CN3CCN(c4ccc(F)cc4)CC3)c12 is ___
Result :: inactive

Query :: Call for entry O=C(NCCN1CCCCC1)n1cc(-c2ccncc2)c(-c2ccc(Cl)c(O)c2)n1 :
Result :: inactive

Query :: Hey, what did the test say about CC(C)CCSc1nc(-c2ccc(F)cc2)c(C#N)c(N2CCN(C)CC2)n1 ?
Result :: inactive

Query :: Could you kindly confirm the outcome this assay logged for Cc1c(C(=O)CCl)c(=O)n(-c2ccccc2)n1C ?
Result :: inactive

Query :: Write down the call the test reported for this compound. Item: C#CCO[C@H]1CC[C@H](OCC#C)[C@@H]2[C@H]1[C@H]1C[C@@H]3[C@@]4(C)CCC[C@@](C)(C(=O)OC)[C@@H]4CC[C@@]23C=C1C(C)C
Result :: inactive
